Every entry's value here was drawn from ChEMBL document CHEMBL1137048.

Biological target: Glucocorticoid receptor (Rattus norvegicus, UniProt P06536)
Sequence (P06536 whole entry): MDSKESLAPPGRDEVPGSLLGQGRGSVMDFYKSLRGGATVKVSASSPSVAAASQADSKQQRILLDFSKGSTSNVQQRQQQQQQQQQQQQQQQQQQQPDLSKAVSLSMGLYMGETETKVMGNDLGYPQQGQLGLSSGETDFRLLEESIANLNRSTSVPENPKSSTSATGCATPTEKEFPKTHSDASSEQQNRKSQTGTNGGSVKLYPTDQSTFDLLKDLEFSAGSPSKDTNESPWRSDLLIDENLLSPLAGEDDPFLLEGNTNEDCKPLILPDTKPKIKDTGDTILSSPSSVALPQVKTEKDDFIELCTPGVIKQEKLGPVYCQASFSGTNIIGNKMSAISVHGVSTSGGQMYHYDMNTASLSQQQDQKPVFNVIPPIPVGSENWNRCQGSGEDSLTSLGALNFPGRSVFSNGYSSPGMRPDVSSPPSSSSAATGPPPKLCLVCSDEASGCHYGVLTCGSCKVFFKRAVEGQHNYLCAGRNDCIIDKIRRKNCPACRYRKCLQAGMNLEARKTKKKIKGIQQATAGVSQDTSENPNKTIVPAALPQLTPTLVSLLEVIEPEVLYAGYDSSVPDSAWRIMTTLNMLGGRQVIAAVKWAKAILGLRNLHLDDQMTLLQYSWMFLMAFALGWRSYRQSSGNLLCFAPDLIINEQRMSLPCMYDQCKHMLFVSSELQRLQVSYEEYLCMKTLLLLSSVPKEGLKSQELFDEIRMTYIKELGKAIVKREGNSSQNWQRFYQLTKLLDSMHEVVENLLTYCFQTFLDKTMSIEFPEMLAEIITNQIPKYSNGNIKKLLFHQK
Experiment: Inhibition against U2OS cells expressing rat Glucocorticoid receptor
Observed Property: IC50 (nM)

Please review the entries below; each comes with its answer.
Molecule	Assayed Target	IC50, nM
COc1cccc(C(O)[C@H]2CCCC3=Cc4c(cnn4-c4ccc(F)cc4)C[C@@]32C)c1 (some centres undefined)	Glucocorticoid receptor (Rattus norvegicus, UniProt P06536)	2.3
C[C@@H]1C[C@H]2C3CCC4=CC(=O)C=C[C@]4(C)[C@@]3(F)[C@@H](O)C[C@]2(C)[C@@]1(O)C(=O)O (some centres undefined)	Glucocorticoid receptor (Rattus norvegicus, UniProt P06536)	1.4
C[C@]12Cc3cnn(-c4ccc(F)cc4)c3C=C1CCC[C@@H]2C(O)CCc1ccccc1 (some centres undefined)	Glucocorticoid receptor (Rattus norvegicus, UniProt P06536)	8.6
C[C@]12Cc3cnn(-c4ccc(F)cc4)c3C=C1CCC[C@@H]2C(O)c1ccc(O)cc1 (some centres undefined)	Glucocorticoid receptor (Rattus norvegicus, UniProt P06536)	6.6
C[C@]12Cc3cnn(-c4ccc(F)cc4)c3C=C1CCC[C@@H]2C(O)c1ccccc1 (some centres undefined)	Glucocorticoid receptor (Rattus norvegicus, UniProt P06536)	7.9

(I) C[C@]12Cc3cnn(-c4ccc(F)cc4)c3C=C1CCC[C@@H]2C(O)c1cccc(O)c1 (some centres undefined)
(II) C[C@]12Cc3cnn(-c4ccc(F)cc4)c3C=C1CCC[C@@H]2C(O)c1ccc(C(F)(F)F)cc1 (some centres undefined)
(III) CCCCC(O)[C@H]1CCCC2=Cc3c(cnn3-c3ccc(F)cc3)C[C@@]21C (some centres undefined)
Rank the items in ascending order with respect to IC50. The response must list the labels following the requested ordering.
III, I, II
(III: 0.7 nM, I: 5.2 nM, II: 14 nM)

(I) C[C@]12Cc3cnn(-c4ccc(F)cc4)c3C=C1CCC[C@@H]2C(O)Cc1ccccc1 (some centres undefined)
(II) Cc1ccc(C(O)[C@H]2CCCC3=Cc4c(cnn4-c4ccc(F)cc4)C[C@@]32C)cc1 (some centres undefined)
Identify the item whose IC50 is the smaller number: I or II Your choice should be expressed through its label.
II
(II: 2.5 nM, I: 5.5 nM)

(I) C[C@]12Cc3cnn(-c4ccc(F)cc4)c3C=C1CCC[C@@H]2C(O)c1csc2ccccc12 (some centres undefined)
(II) C[C@]12Cc3cnn(-c4ccc(F)cc4)c3C=C1CCC[C@@H]2C(O)c1ccc(Cl)cc1 (some centres undefined)
Compare IC50: is it lower for I or for II ? Please identify the chosen entry by its label.
I
